Consider the following molecules and their measured CC50 at 48 h readings.
- Method notes: Cytotoxicity against human HEK293T cells assessed as cell viability after 48 hrs by CCK-8 assay
- Type: toxicity, cell-based, HEK-293T

{"columns": ["Smiles repr", "CC50 at 48 h"],
 "data": [
  ["Cn1cc(SCc2nnc(SCc3ccc(Cl)cc3C(F)(F)F)n2-c2c(Cl)cccc2Cl)c2ccccc21", "56.5 µM"],
  ["Cn1cc(SCc2nnc(S)n2-c2c(Cl)cccc2Cl)c2ccccc21", "> 100 µM"],
  ["Cn1cc(SCc2nnc(SCc3c(Cl)cccc3Cl)n2-c2c(Cl)cccc2Cl)c2ccccc21", "> 100 µM"],
  ["Cn1cc(SCc2nnc(SCc3c(F)cccc3Cl)n2-c2c(Cl)cccc2Cl)c2ccccc21", "> 100 µM"]
]}

### Prompt Name the recorded CC50 at 48 h of the item Cn1cc(SCc2nnc(SCc3ccccc3C#N)n2-c2c(Cl)cccc2Cl)c2ccccc21 in your answer.
### Response 78.6 µM

### Prompt Name the recorded CC50 at 48 h of the item Cn1cc(SCc2nnc(SCc3ccc(Cl)cc3Cl)n2-c2c(Cl)cccc2Cl)c2ccccc21 in your answer.
### Response > 100 µM

---

- Method notes: Cytotoxicity against human HEK293T cells assessed as cell viability after 48 hrs by CCK-8 assay
- Assay type: toxicity, cell-based, HEK-293T
Assay metric: CC50 at 48 h

Known results for compounds:
{"columns": ["Smiles repr", "CC50 at 48 h"],
 "data": [
  ["Cn1cc(SCc2nnc(SCc3ccccc3Cl)n2-c2c(Cl)cccc2Cl)c2ccccc21", "49.6 µM"],
  ["Cn1cc(SCc2nnc(SCc3ccccc3)n2-c2c(Cl)cccc2Cl)c2ccccc21", "> 100 µM"],
  ["Cn1cc(SCc2nnc(SCc3cc(Cl)ccc3Cl)n2-c2c(Cl)cccc2Cl)c2ccccc21", "> 100 µM"],
  ["CCOC(=O)c1c(CSc2nnc(CSc3cn(C)c4ccccc34)n2-c2c(Cl)cccc2Cl)n(C)c2cc(Br)c(OC(C)=O)cc12", "> 100 µM"],
  ["Cn1cc(SCc2nnc(SCc3ccc(Cl)c(F)c3)n2-c2c(Cl)cccc2Cl)c2ccccc21", "> 100 µM"]
]}

### Prompt Name the recorded CC50 at 48 h of the item Cn1cc(SCc2nnc(SCc3ccc(Cl)cc3F)n2-c2c(Cl)cccc2Cl)c2ccccc21 in your answer.
### Response 87.3 µM

### Prompt Name the recorded CC50 at 48 h of the item Cn1cc(SCc2nnc(SCc3cc(C(F)(F)F)ccc3Cl)n2-c2c(Cl)cccc2Cl)c2ccccc21 in your answer.
### Response 53.8 µM

---

- Method notes: Selectivity index, ratio of CC50 for human HEK293T cells to IC50 for antiviral activity against Influenza A virus A/WSN/33 (H1N1) infected in HEK293T cells
- Assay type: toxicity, cell-based
- Measurement parameters: read-out: Ratio CC50/IC50
Consider the following compounds and their measured selectivity ratio readings.

{"columns": ["Smiles repr", "Observed result"],
 "data": [
  ["Cn1cc(SCc2nnc(SCc3ccccc3C#N)n2-c2c(Cl)cccc2Cl)c2ccccc21", 24.7],
  ["Cn1cc(SCc2nnc(SCc3ccc(Cl)cc3C(F)(F)F)n2-c2c(Cl)cccc2Cl)c2ccccc21", 21.8],
  ["Cn1cc(SCc2nnc(SCc3cccc(Cl)c3Cl)n2-c2c(Cl)cccc2Cl)c2ccccc21", "> 46.7"],
  ["Cn1cc(SCc2nnc(SCc3ccc(Cl)c(F)c3)n2-c2c(Cl)cccc2Cl)c2ccccc21", "> 14"],
  ["Cn1cc(SCc2nnc(SCc3cc(Cl)ccc3F)n2-c2c(Cl)cccc2Cl)c2ccccc21", "> 35.3"]
]}

### Prompt Name the recorded selectivity ratio of the item Cn1cc(SCc2nnc(SCc3ccc(Cl)cc3F)n2-c2c(Cl)cccc2Cl)c2ccccc21 in your answer.
### Response 7.67

### Prompt Name the recorded selectivity ratio of the item Cn1cc(SCc2nnc(S)n2-c2c(Cl)cccc2Cl)c2ccccc21 in your answer.
### Response > 67.6

### Prompt Name the recorded selectivity ratio of the item Cn1cc(SCc2nnc(SCc3cccc(Cl)c3F)n2-c2c(Cl)cccc2Cl)c2ccccc21 in your answer.
### Response > 23.8

---

- Method notes: Selectivity index, ratio of CC50 for human HEK293T cells to IC50 for antiviral activity against Influenza A virus A/WSN/33 (H1N1) infected in HEK293T cells
- Format: toxicity, cell-based
- Measurement parameters: read-out: Ratio CC50/IC50
Assay metric: selectivity ratio
Give the figure by itself; no unit, no explanation.

{"columns": ["Smiles repr", "selectivity ratio"],
 "data": [
  ["Cn1cc(SCc2nnc(SCc3ccc(OC(F)(F)F)c(Cl)c3)n2-c2c(Cl)cccc2Cl)c2ccccc21", 10.4]
]}

Could you now look at the following compound, please?
### Prompt Name the recorded selectivity ratio of the item Cn1cc(SCc2nnc(SCc3cc(C(F)(F)F)ccc3Cl)n2-c2c(Cl)cccc2Cl)c2ccccc21 in your answer.
### Response 10.6

---

- Method notes: Selectivity index, ratio of CC50 for human HEK293T cells to IC50 for antiviral activity against Influenza A virus A/WSN/33 (H1N1) infected in HEK293T cells
- Assay type: toxicity, cell-based
- Measurement parameters: read-out: Ratio CC50/IC50
Consider the following compounds and their measured selectivity ratio readings.

Known results for compounds:
{"columns": ["Smiles repr", "selectivity ratio"],
 "data": [
  ["Cn1cc(SCc2nnc(SCc3ccccc3Cl)n2-c2c(Cl)cccc2Cl)c2ccccc21", 6.65],
  ["Cn1cc(SCc2nnc(SCc3cc(Cl)ccc3Cl)n2-c2c(Cl)cccc2Cl)c2ccccc21", "> 19.5"],
  ["Cn1cc(SCc2nnc(SCc3ccccc3)n2-c2c(Cl)cccc2Cl)c2ccccc21", "> 74.6"],
  ["CCOC(=O)c1c(CSc2nnc(CSc3cn(C)c4ccccc34)n2-c2c(Cl)cccc2Cl)n(C)c2cc(Br)c(OC(C)=O)cc12", "> 44"]
]}

Could you now look at the following compound, please?
### Prompt Name the recorded selectivity ratio of the item Cn1cc(SCc2nnc(SCc3ccccc3OC(F)(F)F)n2-c2c(Cl)cccc2Cl)c2ccccc21 in your answer.
### Response > 70.9

---

- Method notes: Cytotoxicity against human HEK293T cells assessed as cell viability after 48 hrs by CCK-8 assay
- Format: toxicity, cell-based, HEK-293T
Assay metric: CC50 at 48 h

{"columns": ["Smiles repr", "CC50 at 48 h"],
 "data": [
  ["Cn1cc(SCc2nnc(SCc3cccc(Cl)c3F)n2-c2c(Cl)cccc2Cl)c2ccccc21", "> 100 µM"],
  ["Cn1cc(SCc2nnc(SCc3ccc(OC(F)(F)F)c(Cl)c3)n2-c2c(Cl)cccc2Cl)c2ccccc21", "77.7 µM"]
]}

Could you now look at the following molecule, please?
### Prompt Name the recorded CC50 at 48 h of the item Cn1cc(SCc2nnc(SCc3cccc(Cl)c3Cl)n2-c2c(Cl)cccc2Cl)c2ccccc21 in your answer.
### Response > 100 µM

---

Consider the following compounds and their measured CC50 at 48 h readings.
- Method notes: Cytotoxicity against human HEK293T cells assessed as cell viability after 48 hrs by CCK-8 assay
- Type: toxicity, cell-based, HEK-293T

Known results for compounds:
{"columns": ["Compound", "Observed result"],
 "data": [
  ["NC(=O)c1ncn([C@@H]2O[C@H](CO)[C@@H](O)[C@H]2O)n1 [RIBAVIRIN]", "> 100 µM"],
  ["Cn1cc(SCc2nnc(SCc3ccccc3OC(F)(F)F)n2-c2c(Cl)cccc2Cl)c2ccccc21", "> 100 µM"]
]}

Could you now look at the following compound, please?
### Prompt Name the recorded CC50 at 48 h of the item Cn1cc(SCc2nnc(SCc3cc(Cl)ccc3F)n2-c2c(Cl)cccc2Cl)c2ccccc21 in your answer.
### Response > 100 µM

---

- Method notes: Selectivity index, ratio of CC50 for human HEK293T cells to IC50 for antiviral activity against Influenza A virus A/WSN/33 (H1N1) infected in HEK293T cells
- Assay type: toxicity, cell-based
- Measurement parameters: read-out: Ratio CC50/IC50
Consider the following molecules and their measured selectivity ratio readings.

Known results for molecules:
{"columns": ["Smiles repr", "selectivity ratio"],
 "data": [
  ["Cn1cc(SCc2nnc(SCc3c(F)cccc3Cl)n2-c2c(Cl)cccc2Cl)c2ccccc21", "> 25.4"],
  ["Cn1cc(SCc2nnc(SCc3ccc(Cl)cc3Cl)n2-c2c(Cl)cccc2Cl)c2ccccc21", "> 16.2"]
]}

Could you now look at the following molecule, please?
### Prompt Name the recorded selectivity ratio of the item Cn1cc(SCc2nnc(SCc3c(Cl)cccc3Cl)n2-c2c(Cl)cccc2Cl)c2ccccc21 in your answer.
### Response > 11

Where these numbers come from: ChEMBL document CHEMBL5143634
